Cited source: patent US20050282818A1

target: ROC1/CUL1 (Homo sapiens, UniProt P62877+Q13616); experiment: ROC1/CUL1 ubiquitin ligase assay (SCF assay)
Sequence (P62877 whole entry): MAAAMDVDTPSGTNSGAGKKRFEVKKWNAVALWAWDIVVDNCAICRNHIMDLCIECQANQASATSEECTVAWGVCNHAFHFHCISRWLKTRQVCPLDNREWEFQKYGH
Sequence (Q13616 whole entry): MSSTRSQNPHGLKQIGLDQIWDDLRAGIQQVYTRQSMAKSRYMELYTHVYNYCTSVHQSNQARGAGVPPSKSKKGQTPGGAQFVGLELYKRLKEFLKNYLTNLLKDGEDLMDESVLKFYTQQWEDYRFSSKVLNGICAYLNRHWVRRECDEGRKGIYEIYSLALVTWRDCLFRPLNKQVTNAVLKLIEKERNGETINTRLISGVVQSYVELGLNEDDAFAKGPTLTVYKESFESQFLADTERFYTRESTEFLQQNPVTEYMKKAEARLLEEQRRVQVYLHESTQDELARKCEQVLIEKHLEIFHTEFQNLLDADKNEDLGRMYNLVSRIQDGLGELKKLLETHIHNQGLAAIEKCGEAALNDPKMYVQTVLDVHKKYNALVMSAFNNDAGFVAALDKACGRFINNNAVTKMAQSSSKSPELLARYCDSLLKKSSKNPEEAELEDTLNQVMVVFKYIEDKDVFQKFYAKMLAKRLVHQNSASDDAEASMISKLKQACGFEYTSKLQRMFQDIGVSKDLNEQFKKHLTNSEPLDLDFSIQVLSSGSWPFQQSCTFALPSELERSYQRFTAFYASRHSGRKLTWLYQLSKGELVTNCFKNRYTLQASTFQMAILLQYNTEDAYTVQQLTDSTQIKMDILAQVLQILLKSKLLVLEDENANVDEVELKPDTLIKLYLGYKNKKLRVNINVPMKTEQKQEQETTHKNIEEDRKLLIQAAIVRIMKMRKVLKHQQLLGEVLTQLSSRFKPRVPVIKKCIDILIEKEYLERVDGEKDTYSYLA
observable: IC50

molecule: Cc1cccc(N2CCN(S(=O)(=O)c3ccc(Sc4cccc5cccnc45)c4nonc34)CC2)n1 [compound 196]
experimental.system: ROC1/CUL1 (Homo sapiens, UniProt P62877+Q13616)
IC50: ≥ 20 µM
--
molecule: O=[N+]([O-])c1ccc(Nc2ccc3[nH]ncc3c2)c2nonc12 [compound 222]
experimental.system: ROC1/CUL1 (Homo sapiens, UniProt P62877+Q13616)
IC50: ≥ 20 µM
--
molecule: CN1CCN(S(=O)(=O)c2ccc(Sc3cccc4ccccc34)c3nonc23)CC1 [compound 267]
experimental.system: ROC1/CUL1 (Homo sapiens, UniProt P62877+Q13616)
IC50: ≥ 20 µM
--
molecule: CC(=O)OCCCNc1cc(SC2CCCCC2)c2nonc2c1[N+](=O)[O-] [compound 135]
experimental.system: ROC1/CUL1 (Homo sapiens, UniProt P62877+Q13616)
IC50: ≥ 20 µM
--
molecule: CC1CC(C)CN(S(=O)(=O)c2ccc(Cl)c3nonc23)C1 (centres unmarked) [compound 192]
experimental.system: ROC1/CUL1 (Homo sapiens, UniProt P62877+Q13616)
IC50: ≥ 20 µM

So, N#CC1(c2ccccc2)CCN(S(=O)(=O)c2ccc(O)c3nonc23)CC1 [compound 199] ? Its IC50 was ≥ 20 µM

So, COC(=O)c1ccc(NS(=O)(=O)c2ccc(Sc3ccncc3)c3nonc23)cc1 [compound 256] ? Its IC50 was ≥ 20 µM

So, O=[N+]([O-])c1ccc(Nc2ccc3cn[nH]c3c2)c2nonc12 [compound 223] ? Its IC50 was ≥ 20 µM

====

Overview of reported IC50 across a group of molecules:
molecular target: APC11/APC2 (Homo sapiens, UniProt Q9NYG5+Q9UJX6); assay: APC-11/APC-2 ligase assay (APC auto ubiquitination); conditions: APC assay
Sequence (Q9NYG5 whole entry): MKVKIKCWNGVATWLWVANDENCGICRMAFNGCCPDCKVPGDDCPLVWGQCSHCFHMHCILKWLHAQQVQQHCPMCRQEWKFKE
Sequence (Q9UJX6 whole entry): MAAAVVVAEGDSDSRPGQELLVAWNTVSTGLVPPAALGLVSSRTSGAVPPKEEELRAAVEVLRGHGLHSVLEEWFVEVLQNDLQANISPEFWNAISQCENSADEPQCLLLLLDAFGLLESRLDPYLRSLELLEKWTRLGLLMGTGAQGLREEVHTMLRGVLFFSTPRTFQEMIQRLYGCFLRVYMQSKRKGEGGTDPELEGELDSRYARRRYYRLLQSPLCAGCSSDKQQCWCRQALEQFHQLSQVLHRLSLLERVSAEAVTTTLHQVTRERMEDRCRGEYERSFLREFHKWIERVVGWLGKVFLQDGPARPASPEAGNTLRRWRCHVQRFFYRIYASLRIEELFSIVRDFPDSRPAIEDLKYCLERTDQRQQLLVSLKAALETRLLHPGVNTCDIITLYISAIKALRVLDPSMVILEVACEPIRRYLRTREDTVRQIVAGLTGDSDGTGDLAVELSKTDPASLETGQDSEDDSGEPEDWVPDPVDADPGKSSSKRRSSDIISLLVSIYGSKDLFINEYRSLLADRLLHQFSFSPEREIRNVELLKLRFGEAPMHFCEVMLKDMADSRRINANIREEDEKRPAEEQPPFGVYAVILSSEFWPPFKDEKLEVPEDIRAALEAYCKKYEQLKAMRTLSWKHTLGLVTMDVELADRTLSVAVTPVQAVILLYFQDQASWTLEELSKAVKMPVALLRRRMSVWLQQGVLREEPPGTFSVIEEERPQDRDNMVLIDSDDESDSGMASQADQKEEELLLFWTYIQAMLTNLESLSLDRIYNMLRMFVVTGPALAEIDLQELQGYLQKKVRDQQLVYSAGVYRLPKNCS

molecule: O=S(=O)(c1c(Cl)ccc2nonc12)N1CCN(c2ncc(C(F)(F)F)cc2Cl)CC1 [compound 179]
IC50: 1 to 20 µM
--
molecule: COc1cc(Nc2ccc(S(=O)(=O)Nc3cc(OC)c(Cl)cc3OC)c3nonc23)c(OC)cc1Cl [compound 342]
IC50: 1 to 20 µM
--
molecule: COC(=O)c1ccc(Cl)cc1NS(=O)(=O)c1ccc(Cl)c2nonc12 [compound 360]
IC50: ≥ 20 µM

Please examine the following record next.
So, COc1ccc(-c2cc3nsnc3cc2F)cc1OC [compound 463] ? Its IC50 was ≥ 20 µM

====

biological target: APC11/APC2 (Homo sapiens, UniProt Q9NYG5+Q9UJX6); test: APC-11/APC-2 ligase assay (APC auto ubiquitination); conditions: APC assay
Overview of reported IC50 across a group of compounds:

structure.string: Nc1ccc(N2CCOCC2)c2nonc12
experimental.system: APC11/APC2 (Homo sapiens, UniProt Q9NYG5+Q9UJX6)
recorded.result: ≥ 20 µM

structure.string: O=S(=O)(c1c(N2CCC(Oc3ccccc3C(F)(F)F)CC2)ccc2nonc12)N1CCC(Oc2ccccc2C(F)(F)F)CC1
experimental.system: APC11/APC2 (Homo sapiens, UniProt Q9NYG5+Q9UJX6)
recorded.result: ≥ 20 µM

structure.string: O=[N+]([O-])c1cc(-c2cccc(C(F)(F)F)c2)c2nonc2c1
experimental.system: APC11/APC2 (Homo sapiens, UniProt Q9NYG5+Q9UJX6)
recorded.result: 1 to 20 µM

Please examine the following record next.
So, O=S(=O)(Oc1ccc(N2CCN(S(=O)(=O)c3ccc(Cl)c4nonc34)CC2)cc1)c1ccc(Cl)c2nonc12 ? Its IC50 was 1 to 20 µM

====

tested on: UACC-257 cells; experiment: Cell proliferation PAD assay, UACC-257; type: cell-based; conditions: Homo sapiens, UACC257 cells, 6pt, 48 hours
pIC50: −log10 of the molar value.
observable: pIC50

Use the examples below as a reference point.
structure.string: N#CC1(c2ccccc2)CCN(c2ccc([N+](=O)[O-])c3nonc23)CC1
pIC50: ≤ 4.70

structure.string: O=C(CN1CCN(c2ccc([N+](=O)[O-])c3nonc23)CC1)N1CCOCC1
pIC50: ≤ 4.70

structure.string: COC(=O)c1ccc(Nc2ccc(S(=O)(=O)Nc3ccc(C(=O)OC)cc3)c3nonc23)cc1
pIC50: ≤ 4.70

So, O=[N+]([O-])c1ccc(Sc2nc3ccccc3s2)c2nonc12 ? Its pIC50 was 4.70 to 6.00

So, O=[N+]([O-])c1ccc(Oc2c(Cl)cc(S(=O)(=O)Nc3cccc4nsnc34)cc2Cl)c(Cl)c1 ? Its pIC50 was ≤ 4.70

So, Cc1ccc(N2CCN(c3ccc([N+](=O)[O-])c4nonc34)CC2)cc1C ? Its pIC50 was 4.70 to 6.00

So, O=[N+]([O-])c1ccc(N2CCN(c3ccc(O)cc3)CC2)c2nonc12 ? Its pIC50 was 4.70 to 6.00

So, O=[N+]([O-])c1ccc(Sc2cccc3cccnc23)c2nonc12 ? Its pIC50 was > 6.00

So, O=C(c1ccc(F)cc1)C1CCN(c2ccc([N+](=O)[O-])c3nonc23)CC1 ? Its pIC50 was 4.70 to 6.00

====

Overview of reported pIC50 across a group of compounds:
target: APC11/APC2 (Homo sapiens, UniProt Q9NYG5+Q9UJX6); assay: APC-11/APC-2 ligase assay (APC auto ubiquitination); conditions: APC assay
pIC50: −log10 of the molar value.

Use the examples below as a reference point.
compound: Oc1ccc2c(c1)cc(Sc1cccc3cccnc13)c1nonc12 [compound 425]
pIC50: ≤ 4.70
--
compound: COc1cccc(NS(=O)(=O)c2ccc(Sc3cccc4ccccc34)c3nonc23)c1OC [compound 413]
pIC50: 4.70 to 6.00
--
compound: Cc1cc(C)cc(-c2ccc(N)c3nonc23)c1 [compound 426]
pIC50: ≤ 4.70
--
compound: Cc1cccc(-c2cc(-c3cccc(C)c3)c3nonc3c2)c1 [compound 419]
pIC50: ≤ 4.70
--
compound: Cc1ccc(C)c(-c2ccc([N+](=O)[O-])c3nonc23)c1 [compound 471]
pIC50: 4.70 to 6.00

So, Cc1cccc(-c2cc3nsnc3cc2F)c1C [compound 457] ? Its pIC50 was ≤ 4.70

So, O=S(=O)(Nc1ncccc1OCc1ccccc1)c1ccc(N2CCOCC2)c2nonc12 [compound 382] ? Its pIC50 was ≤ 4.70

So, O=C(Nc1ccc([N+](=O)[O-])c2nonc12)c1cccc(F)c1F [compound 427] ? Its pIC50 was ≤ 4.70

So, COc1cc(NS(=O)(=O)c2ccc(F)c3nonc23)c(OC)cc1Cl [compound 348] ? Its pIC50 was ≤ 4.70

So, Nc1cccc2c(NS(=O)(=O)c3ccc(Cl)c4nonc34)cccc12 [compound 387] ? Its pIC50 was ≤ 4.70

So, O=[N+]([O-])c1ccc(N2CCN(c3ccc(O)cc3)CC2)c2nonc12 [compound 146] ? Its pIC50 was 4.70 to 6.00

So, CC1CC(C)CN(c2ccc([N+](=O)[O-])c3nonc23)C1 (stereo not drawn) [compound 144] ? Its pIC50 was 4.70 to 6.00

So, COc1ccc(-c2cc3nsnc3cc2F)cc1 [compound 462] ? Its pIC50 was ≤ 4.70

So, COc1ccccc1Sc1ccc(S(=O)(=O)Nc2cccc(F)c2F)c2nonc12 [compound 378] ? Its pIC50 was 4.70 to 6.00

So, Fc1c(N2CCOCC2)cc2nonc2c1F [compound 406] ? Its pIC50 was ≤ 4.70

So, O=[N+]([O-])c1ccc(-c2ccccc2)c2nonc12 [compound 440, 4-nitro-7-phenyl-2,1,3-benzoxadiazole] ? Its pIC50 was 4.70 to 6.00

So, O=S(=O)(Nc1ccc(OS(=O)(=O)c2ccc(Cl)c3nonc23)c2ccccc12)c1ccc(Cl)c2nonc12 [compound 394] ? Its pIC50 was 4.70 to 6.00

So, O=S(=O)(Nc1cccc2ccccc12)c1c(Cl)cc(Cl)c2nonc12 [compound 416] ? Its pIC50 was 4.70 to 6.00

====

target: APC11/APC2 (Homo sapiens, UniProt Q9NYG5+Q9UJX6); test: APC-11/APC-2 ligase assay (APC auto ubiquitination); conditions: APC assay
Overview of reported IC50 across a group of molecules:

structure.string: Clc1cc(Sc2cccc3cccnc23)cc2nonc12
recorded.result: ≥ 20 µM

So, COc1cccc(NS(=O)(=O)c2ccc(Cl)c3nonc23)c1OC ? Its IC50 was ≥ 20 µM

So, Nc1ccc(OS(=O)(=O)c2ccc(Cl)c3nonc23)c2ccccc12 ? Its IC50 was 1 to 20 µM

====

Overview of reported IC50 across a group of compounds:
target: TRAF6/Uev1A/Ubc13 (Homo sapiens); assay: TRAF6/Uev1A/Ubc13 plate-based ubiquitin ligase assay
Sequence (Q9Y4K3 whole entry): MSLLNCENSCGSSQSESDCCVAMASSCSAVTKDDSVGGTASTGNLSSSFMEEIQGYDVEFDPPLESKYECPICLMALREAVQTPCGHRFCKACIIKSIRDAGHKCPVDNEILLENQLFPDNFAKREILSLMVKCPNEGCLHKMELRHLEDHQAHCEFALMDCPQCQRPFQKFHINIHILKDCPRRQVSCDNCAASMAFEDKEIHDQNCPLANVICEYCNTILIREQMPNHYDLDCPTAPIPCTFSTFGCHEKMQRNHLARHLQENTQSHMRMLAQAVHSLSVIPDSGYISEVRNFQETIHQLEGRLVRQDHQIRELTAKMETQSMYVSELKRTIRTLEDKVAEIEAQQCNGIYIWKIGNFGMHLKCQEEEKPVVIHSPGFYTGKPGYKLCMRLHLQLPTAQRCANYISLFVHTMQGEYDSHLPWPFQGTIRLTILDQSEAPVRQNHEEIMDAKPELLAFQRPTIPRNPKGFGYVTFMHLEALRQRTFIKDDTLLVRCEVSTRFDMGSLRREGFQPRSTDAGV

Use the examples below as a reference point.
structure.string: CC1(C)CCN(S(=O)(=O)c2c(Cl)ccc3nonc23)CC1
IC50: 1 to 20 µM
--
structure.string: CC(=O)Nc1ccc(-c2cc(C)cc(C)c2)c2nonc12
IC50: ≥ 20 µM
--
structure.string: Cc1ccc(N2CCN(S(=O)(=O)c3c(N4CCN(c5cccc(C)n5)CC4)ccc4nonc34)CC2)nc1
IC50: 1 to 20 µM
--
structure.string: COc1ccc(OC)c(NS(=O)(=O)c2ccc(N3CCOCC3)c3nonc23)c1
IC50: ≥ 20 µM
--
structure.string: COc1ccc2nonc2c1-c1cc(C)cc(C)c1
IC50: ≥ 20 µM
--
structure.string: O=[N+]([O-])c1cc(-c2cccc(C(F)(F)F)c2)c2nonc2c1
IC50: ≥ 20 µM
--
structure.string: Nc1ccc(S(=O)(=O)Nc2ccnc(Cl)c2)c2nonc12
IC50: ≥ 20 µM
--
structure.string: O=[N+]([O-])c1ccc(-c2ccc(C(F)(F)F)cc2C(F)(F)F)c2nonc12
IC50: 1 to 20 µM

Please examine the following record next.
Field IC50 (TRAF6/Uev1A/Ubc13 (Homo sapiens)), entry O=S(=O)(c1ccc(F)c2nonc12)N1CCC(Oc2ccccc2C(F)(F)F)CC1 : 1 to 20 µM
